System: Lung cancer cell A-549
procedure-summary: In vitro cytotoxicity against human cancer cell lines (sulforhodamine B), Lung A-549
Type: cell-based
test-settings: A549, 5 × 10^−5 M, 48 hours, read-out: % GROWTH INHIBITION Lung A-549
inhibition at 50 µM for assorted compounds
Write it as a number; the unit % goes unstated.

Examples with answers:
C[C@H]1[C@H](OCc2cn(-c3ccc(-c4ccc(-n5cc(CO[C@@H]6O[C@@H]7O[C@@]8(C)CC[C@H]9[C@H](C)CC[C@@H]([C@H]6C)[C@@]79OO8)nn5)cc4)cc3)nn2)O[C@@H]2O[C@@]3(C)CC[C@H]4[C@H](C)CC[C@@H]1[C@@]24OO3 = 64
C[C@@H]1CC[C@H]2[C@@H](C)C(=O)O[C@@H]3O[C@@]4(C)CC[C@@H]1[C@]32OO4 = 29

Which inhibition at 50 µM value is on record for C[C@H]1[C@H](OCCc2cn(-c3ccc(-c4ccc(-n5cc(CCO[C@@H]6O[C@@H]7O[C@@]8(C)CC[C@H]9[C@H](C)CC[C@@H]([C@H]6C)[C@@]79OO8)nn5)cc4)cc3)nn2)O[C@@H]2O[C@@]3(C)CC[C@H]4[C@H](C)CC[C@@H]1[C@@]24OO3 ?
46

Requested read-out: inhibition at 50 µM. Entry: C[C@H]1[C@H](OCc2cn(C3O[C@@H]4O[C@@]5(C)CC[C@H]6[C@H](C)CC[C@@H]([C@H]3C)[C@@]46OO5)nn2)O[C@@H]2O[C@]3(C)CC[C@H]4[C@H](C)CC[C@@H]1[C@@]24OO3 (some centres unmarked)
22

Given the compound C[C@H]1[C@H](OCCc2cn(C3O[C@@H]4O[C@@]5(C)CC[C@H]6[C@H](C)CC[C@@H]([C@H]3C)[C@@]46OO5)nn2)O[C@@H]2O[C@]3(C)CC[C@H]4[C@H](C)CC[C@@H]1[C@@]24OO3 (some centres unmarked) , what is its reported inhibition at 50 µM?
48
